experimental_system: T1, human BCMA protein (human, UniProt Q02223 1-54, limits assumed)
T1 sequence: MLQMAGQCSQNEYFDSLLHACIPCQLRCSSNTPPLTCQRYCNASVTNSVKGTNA
test: affinity to human BCMA protein, method not stated
For each of the binders below, state its Kd.
Numeric only. Scale: nM

Query: Data request, read-out Kd, for BCMA targeting trispecific protein 01B09 (other, not shown: large carriers; small tags and cut ends, trispecific) VHH: EVQLVESGGGLVQPGRSLTLSCAASSNIFSISPMGWYRQAPGKQRELVAAIHGSSTLYADSVKGRFTISRDNAKNSIYLQMNSLRPEDTALYYCNKVPWGDYHPGNVYWGQGTQVTVSS
Reply: 11.2

Query: Data request, read-out Kd, for BCMA targeting trispecific protein 01B04 (other, trispecific; not shown: anti-albumin domain, anti-CD3 domain and the linkers of the trispecific (TriTAC) chain; the C-terminal 6xHis tag follows these missing domains and is left out) VHH: EVQLVESGGGLVQPGRSLTLSCAASTNDFSISPMGWYRQAPGKQRELVAAIHGKSTLYADSVKGRFTISRDNAKNSIYLQMNSLRPEDTALYYCNKVPWGDYHPRNVKWGQGTQVTVSS
Reply: 18.6
